Known self-aminoacylation of a selection of sequences
Test system: biotinyl-Ile-oxazolone
METHOD DESCRIPTION: self-aminoacylation, catalytic enhancement (BIO) (fold over background); higher = more active; k-Seq, kA / k0A0; sequences stand for … in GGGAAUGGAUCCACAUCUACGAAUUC…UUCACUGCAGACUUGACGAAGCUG
This sample holds only a part of the variants without activity.

{"INPUT SEQUENCE": "AUUCACCUACGUCAGCGGGUG [Fam2.2 aminoacylation ribozyme variant]", "self-aminoacylation": 2.95}
{"INPUT SEQUENCE": "CUACUUCACACAAGCGGUCUG [Fam1A.1 aminoacylation ribozyme variant]", "self-aminoacylation": 1.03}
{"INPUT SEQUENCE": "AUAACCCUGGUCAUUGAGUGA [Fam2.1 aminoacylation ribozyme variant]", "self-aminoacylation": 3.89}
{"INPUT SEQUENCE": "CCACACUUCAUGCAAUCGAUC [Fam1B.1 aminoacylation ribozyme variant]", "self-aminoacylation": 0.552}

Each recorded value in this set is attributed to the supplement of paper PMC9233669.
